- EXPERIMENTAL PROTOCOL: Cytotoxicity against human MT4 cells assessed as reduction in cell viability incubated for 5 days by MTT assay
- Format: cell-based
- ASSAY CONTEXT: time 5 day
# if measured CC50 at 120 h < 30 µM: 1  # else: -1

MOL SMILES: C=CC(=O)N1CC[C@H](NS(=O)(=O)c2c(C(N)=O)[nH]c3ccc(Br)cc23)C1
GROUP LABEL: -1
--
MOL SMILES: C=CS(=O)(=O)N[C@@H]1CCN(S(=O)(=O)c2c(C(N)=O)[nH]c3ccc(Br)cc23)C1
GROUP LABEL: 1
--
MOL SMILES: C=CS(=O)(=O)N1CCC[C@@H](NS(=O)(=O)c2c(C(N)=O)[nH]c3ccc(Br)cc23)C1
GROUP LABEL: 1
--
MOL SMILES: C=CC(=O)N1CC[C@@H](NS(=O)(=O)c2c(C(N)=O)[nH]c3ccc(Br)cc23)C1
GROUP LABEL: -1
--
MOL SMILES: C=CS(=O)(=O)NC1CCN(S(=O)(=O)c2c(C(N)=O)[nH]c3ccc(Br)cc23)CC1
GROUP LABEL: 1
--
MOL SMILES: C=CC(=O)N1CCC[C@@H](NS(=O)(=O)c2c(C(N)=O)[nH]c3ccc(Br)cc23)C1
GROUP LABEL: -1
--
MOL SMILES: C=CS(=O)(=O)N1CC[C@H](NS(=O)(=O)c2c(C(N)=O)[nH]c3ccc(Br)cc23)C1
GROUP LABEL: 1
--
MOL SMILES: C=CC(=O)N[C@@H]1CCN(S(=O)(=O)c2c(C(N)=O)[nH]c3ccc(Br)cc23)C1
GROUP LABEL: -1
--
MOL SMILES: C=CC(=O)NC1CCN(S(=O)(=O)c2c(C(N)=O)[nH]c3ccc(Br)cc23)CC1
GROUP LABEL: -1
--
MOL SMILES: NC(=O)c1[nH]c2ccc(Br)cc2c1S(=O)(=O)N1CCCC1
GROUP LABEL: -1
